- measured-target: T1, 57NAAT1like (second extracellular loop of Spodoptera frugiperda sodium-dependent nutrient amino acid … (Spodoptera frugiperda))
- T1 construct: 57 aa antigen; also called NAAT antigen
- T1 chain: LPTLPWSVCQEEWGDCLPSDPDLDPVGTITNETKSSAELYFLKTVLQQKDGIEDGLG
- measurement-protocol: ELISA of periplasmic extracts on passively coated non-biotinylated 57NAAT1like

{"binder": "NAAT monospecific nanobody #5 (VHH, Llama VHH; also called NAAT5) VHH: QVQLQESGGGLVQPGGSLRLACVLSGGPSSSYGVGWFRQRSGTEREFVAAISGSGRTIHYVDDVKGRFAISRDSAKNAVDLQMNNLKPEDTAVYYCAALALVTTHPTSNVGEWDYWGQGTQVTVSS", "binding result": "binds"}
{"binder": "NAAT monospecific nanobody #10 (VHH, Llama VHH; also called NAAT10) VHH: QVQLQESGGGLVQAGGSLTLSCAFSGRTFTHYAMAWFRQAPGKERKFVAGVTRSGPNTYYDDSVQGRFTISRDNAKNTVYLHMNSLKPEDTAVYYCAANSGVVSGYDYWGQGTQVTVSS", "binding result": "binds"}
{"binder": "NAAT monospecific nanobody #6 (VHH, Llama VHH; also called NAAT6) VHH: QVQLQESGGGVVQTGGSLTLSCKASRRTSGFAMAWFRQAPGMEREFVAGIGRTGDNIHYLDSVKGRFTISRDNTKNTLSLQMNSLKSEDTAVYYCAKVVVVAGSPSFDAWGQGTQVTVSS", "binding result": "binds"}
{"binder": "NAAT monospecific nanobody #2 (VHH, Llama VHH; also called NAAT2) VHH: QVQLQESGGGVVQTGGSLTLSCKASRRTSGFAMAWFRQAPGMEREFVAGIGRTGDNIHYLDSVKGRFTISRDNTKNTLSLQMNSLRPGDTAVYYCAADVTKSGFIYWGQGTQVTVSS", "binding result": "binds"}
